Biological target: human αVβ1 (Homo sapiens, UniProt P05556+P06756)
Sequence (P05556 21-728 limits assumed, one chain of several): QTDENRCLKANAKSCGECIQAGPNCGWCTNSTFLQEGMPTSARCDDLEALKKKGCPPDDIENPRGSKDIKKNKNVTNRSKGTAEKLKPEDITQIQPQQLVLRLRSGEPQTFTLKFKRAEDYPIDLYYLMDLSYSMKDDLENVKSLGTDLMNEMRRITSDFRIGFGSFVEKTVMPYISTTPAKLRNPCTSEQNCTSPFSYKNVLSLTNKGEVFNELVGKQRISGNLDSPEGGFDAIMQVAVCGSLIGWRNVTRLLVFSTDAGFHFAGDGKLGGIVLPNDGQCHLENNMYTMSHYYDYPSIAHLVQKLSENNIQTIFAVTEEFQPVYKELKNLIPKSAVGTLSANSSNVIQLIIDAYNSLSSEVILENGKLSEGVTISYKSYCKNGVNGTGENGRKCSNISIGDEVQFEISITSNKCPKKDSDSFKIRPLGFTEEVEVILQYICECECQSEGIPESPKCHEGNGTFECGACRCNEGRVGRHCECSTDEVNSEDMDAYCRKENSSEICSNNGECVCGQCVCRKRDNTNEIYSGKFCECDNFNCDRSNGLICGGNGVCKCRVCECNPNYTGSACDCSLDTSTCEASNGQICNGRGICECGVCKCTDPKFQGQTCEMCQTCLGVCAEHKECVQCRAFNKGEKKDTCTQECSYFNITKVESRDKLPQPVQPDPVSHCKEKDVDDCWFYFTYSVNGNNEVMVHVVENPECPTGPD
Test: human αVβ1 HTRF binding assay
attribute_measured: IC50 (nM)
# number only, unit nM dropped from output

compound	target	measurement_unit	observed_result
O=C(O)CC(c1ccc2c(c1)CCO2)n1ccc(CCCc2ccc3c(n2)NCCC3)n1 (racemic) [Example 30]	human αVβ1 (Homo sapiens, UniProt P05556+P06756)	nM	100
COc1ccc(C(CC(=O)O)c2nc(CCCCc3ccc4c(n3)NCCC4)cs2)cn1 (single isomer, unassigned) [Example 14]	human αVβ1 (Homo sapiens, UniProt P05556+P06756)	nM	241
Cc1cc(C)n(-c2cccc(C(CC(=O)O)n3ccc(CCCc4ccc5c(n4)NCCC5)n3)c2)n1 (racemic) [Example 31]	human αVβ1 (Homo sapiens, UniProt P05556+P06756)	nM	63

Would you mind telling me what IC50 value was observed for CCOc1ncc(C(CC(=O)O)n2ccc(CCCc3ccc4c(n3)NCCC4)n2)cn1 (racemic) [Example 27] ?
144

* * *

Recorded pIC50 values for a group of compounds are listed next.
Molecular target: human αVβ6 (Homo sapiens, UniProt P06756+P18564)
Sequence (P06756 31-992 limits assumed): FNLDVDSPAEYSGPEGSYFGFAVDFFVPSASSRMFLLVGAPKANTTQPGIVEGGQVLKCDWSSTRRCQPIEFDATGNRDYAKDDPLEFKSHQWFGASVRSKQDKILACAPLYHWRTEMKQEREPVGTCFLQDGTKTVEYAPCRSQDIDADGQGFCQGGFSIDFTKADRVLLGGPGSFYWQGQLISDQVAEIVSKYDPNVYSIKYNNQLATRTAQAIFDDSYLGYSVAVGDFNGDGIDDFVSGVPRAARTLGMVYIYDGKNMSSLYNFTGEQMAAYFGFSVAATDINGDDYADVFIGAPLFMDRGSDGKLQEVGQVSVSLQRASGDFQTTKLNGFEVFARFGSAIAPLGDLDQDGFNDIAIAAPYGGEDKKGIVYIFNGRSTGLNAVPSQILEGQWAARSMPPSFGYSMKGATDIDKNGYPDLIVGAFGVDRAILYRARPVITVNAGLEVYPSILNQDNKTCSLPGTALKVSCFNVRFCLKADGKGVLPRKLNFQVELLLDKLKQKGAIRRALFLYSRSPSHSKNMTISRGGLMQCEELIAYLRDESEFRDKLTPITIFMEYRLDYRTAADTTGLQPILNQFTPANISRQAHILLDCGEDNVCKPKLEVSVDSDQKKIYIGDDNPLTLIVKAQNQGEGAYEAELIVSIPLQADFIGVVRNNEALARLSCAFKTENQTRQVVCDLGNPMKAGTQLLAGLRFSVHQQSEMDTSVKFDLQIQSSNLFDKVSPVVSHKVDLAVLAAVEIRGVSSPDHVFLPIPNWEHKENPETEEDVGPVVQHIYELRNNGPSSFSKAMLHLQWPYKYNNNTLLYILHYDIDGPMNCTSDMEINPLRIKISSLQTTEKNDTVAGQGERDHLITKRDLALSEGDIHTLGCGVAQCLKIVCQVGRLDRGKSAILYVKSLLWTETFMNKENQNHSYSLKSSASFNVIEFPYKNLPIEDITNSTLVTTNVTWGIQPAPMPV
Sequence (P18564 22-707 limits assumed): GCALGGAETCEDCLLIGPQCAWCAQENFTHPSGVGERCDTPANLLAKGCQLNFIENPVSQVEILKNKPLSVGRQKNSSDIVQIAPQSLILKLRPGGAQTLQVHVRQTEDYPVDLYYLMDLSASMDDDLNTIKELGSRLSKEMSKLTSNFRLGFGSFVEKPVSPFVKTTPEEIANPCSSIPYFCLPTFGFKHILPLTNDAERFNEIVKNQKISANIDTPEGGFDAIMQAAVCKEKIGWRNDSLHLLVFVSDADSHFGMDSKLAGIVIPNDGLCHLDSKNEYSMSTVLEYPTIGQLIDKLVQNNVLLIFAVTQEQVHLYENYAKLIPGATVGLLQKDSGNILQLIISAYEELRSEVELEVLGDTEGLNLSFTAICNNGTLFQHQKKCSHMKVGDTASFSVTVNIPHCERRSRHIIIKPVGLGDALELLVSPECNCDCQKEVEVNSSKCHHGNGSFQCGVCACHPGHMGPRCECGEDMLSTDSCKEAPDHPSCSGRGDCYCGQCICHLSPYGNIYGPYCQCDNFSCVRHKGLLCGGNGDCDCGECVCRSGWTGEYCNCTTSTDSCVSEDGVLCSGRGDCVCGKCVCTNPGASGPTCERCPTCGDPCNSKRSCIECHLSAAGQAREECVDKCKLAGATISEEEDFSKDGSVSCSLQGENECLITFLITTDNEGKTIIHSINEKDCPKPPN
Assay: human αVβ6 HTRF binding assay
Conditions: recombinant human αVβ6 integrin, FITC-conjugated fibronectin
Reminder that pIC50 means the negative base-10 logarithm of the concentration expressed in mol/L.

compound	pIC50
CN(C)C(=O)c1cncc(C(CC(=O)O)n2ccc(CCCc3ccc4c(n3)NCCC4)n2)c1 (racemic)	7.89
COc1ccc(C(CC(=O)O)c2nc(CCCC3CCc4cccnc4N3)cs2)cc1F (single isomer, unassigned) [Example 158]	8.15
O=C(O)CC(c1cnc2ccccc2c1)n1ccc(CCCc2ccc3c(n2)NCCC3)n1 (racemic)	7.95

Okay, next one:
Would you mind telling me what pIC50 value was observed for CN(C)C(=O)c1cccc(C(CC(=O)O)c2nc(CCCc3ccc4c(n3)NCCC4)cs2)c1 (single isomer, unassigned) [Example 139] ?
7.47

* * *

Biological target: human αVβ6 (Homo sapiens, UniProt P06756+P18564)
Assay: human αVβ6 HTRF binding assay
Conditions: recombinant human αVβ6 integrin, FITC-conjugated fibronectin
pIC50: −log10 of the molar value.
# pIC50 >= 8 gives yes, anything below gives no

compound	class_assignment
CN(C)c1ccc(C(CC(=O)O)c2nc(CCCc3ccc4c(n3)NCCC4)cs2)cn1 (single isomer, unassigned) [Example 134]	yes
COc1ccc(C(CC(=O)O)c2ncc(CCCc3ccc4c(n3)NCCC4)s2)cc1F (single isomer, unassigned) [Example 42]	no
COc1ccc(C(CC(=O)O)c2nc(CCCC3CCc4cccnc4N3)cs2)cn1 (single isomer, unassigned) [Example 156]	no
COc1ccc(C(CC(=O)O)c2ncc(CCCCc3ccc4c(n3)NCCC4)n2C)cc1F (single isomer, unassigned) [Example 167]	no

Then this compound:
Is the recorded value of pIC50 equal to or greater than 8 for this compound? COc1ncc(C(CC(=O)O)n2nccc2CCCc2ccc3c(n2)NCCCC3)cn1 (racemic)
no

* * *

Target: human αVβ6 (Homo sapiens, UniProt P06756+P18564)
Test: human αVβ6 HTRF binding assay
Details: recombinant human αVβ6 integrin, FITC-conjugated fibronectin
Text: All binding assays used the HTRF (homogeneous time resolved fluorescence) technology from Cisbio International, therefore all assays are described as HTRF binding assays. The assay results for the Examples are listed above together with the characterization data. The HTRF binding assays are established for the following integrins: human αVβ6, human αVβ1, human αVβ3, human αVβ5, and human αVβ8. […]
Recorded pIC50 values for a group of compounds are listed next.
Reminder that pIC50 means the negative base-10 logarithm of the concentration expressed in mol/L.

Would you mind telling me what pIC50 value was observed for COc1cc(C(CC(=O)O)n2nccc2CCCc2ccc3c(n2)NCCC3)ccn1 (racemic) ?
7.60

Would you mind telling me what pIC50 value was observed for COc1ccc(C(CC(=O)O)c2nc(CCCc3ccc4c(n3)NCCC4)co2)cc1F (stereo not shown) [Example 178] ?
8.85

Would you mind telling me what pIC50 value was observed for COc1ccc(C(CC(=O)O)c2ncc(CCCCc3ccc4c(n3)NCCC4)s2)cc1F (single isomer, unassigned) [Example 40] ?
7.77

* * *

Target: human αVβ6 (Homo sapiens, UniProt P06756+P18564)
Test: human αVβ6 HTRF binding assay
Settings: recombinant human αVβ6 integrin, FITC-conjugated fibronectin
Recorded pIC50 values for a group of compounds are listed next.
Reminder that pIC50 means the negative base-10 logarithm of the concentration expressed in mol/L.

Worked cases, pIC50 given:
compound	attribute_measured	observed_result
COc1ccc(C(CC(=O)O)c2nc(CCCC3CCc4cccnc4N3)cs2)cn1 (single isomer, unassigned) [Example 154]	pIC50	6.68
O=C(O)C[C@@H](c1ccc(=O)n(CC2CC2)c1)n1ccc(CCCc2ccc3c(n2)NCCC3)n1	pIC50	7.72
COc1ccc(C(CC(=O)O)n2ccc(CCCCc3ccc4c(n3)NCCC4)n2)cn1 (racemic)	pIC50	8.22
O=C(O)CC(c1cccc(N2CCOCC2)c1)c1nc(CCCCc2ccc3c(n2)NCCC3)cs1 (single isomer, unassigned) [Example 125]	pIC50	6.74
COc1ccc(C(CC(=O)O)n2nccc2CCCc2ccc3c(n2)NCCC3)cc1F (racemic)	pIC50	7.82

Would you mind telling me what pIC50 value was observed for COc1ncc(C(CC(=O)O)n2ccc(CCCc3ccc4c(n3)NCCCC4)n2)cn1 (single isomer, unassigned) [Example 105] ?
6.33

Would you mind telling me what pIC50 value was observed for CCOc1ncc([C@@H](CC(=O)O)n2ccc(CCCc3ccc4c(n3)NCCC4)n2)cn1 ?
6.32

* * *

Target: human αVβ6 (Homo sapiens, UniProt P06756+P18564)
Experiment: human αVβ6 HTRF binding assay
Conditions: recombinant human αVβ6 integrin, FITC-conjugated fibronectin
Flag rule - IC50 less than 200 nM flags Condition met; the remaining entries get Condition not met.

// below: answered compounds
compound	target	class_assignment
COc1ncc([C@H](CC(=O)O)n2ccc(CCC[C@@H]3CCc4cccnc4N3)n2)cn1 [Example 90]	human αVβ6 (Homo sapiens, UniProt P06756+P18564)	Condition not met
O=C(O)CC(c1cc(Cl)cc(Cl)c1)n1nccc1CCCc1ccc2c(n1)NCCC2 (racemic) [Example 75]	human αVβ6 (Homo sapiens, UniProt P06756+P18564)	Condition met
COc1ncc(C(CC(=O)O)n2ncc(CCCc3ccc4c(n3)NCCC4)n2)cn1 (single isomer, unassigned) [Example 177]	human αVβ6 (Homo sapiens, UniProt P06756+P18564)	Condition not met
Cc1ncc(C(CC(=O)O)n2nccc2CCC[C@@H]2CCc3cccnc3N2)cn1 (mixture of isomers) [Example 91]	human αVβ6 (Homo sapiens, UniProt P06756+P18564)	Condition not met
COc1ccc(C(CC(=O)O)n2ccc(CCCc3ccc4c(n3)NCCCC4)n2)cn1 (single isomer, unassigned) [Example 102]	human αVβ6 (Homo sapiens, UniProt P06756+P18564)	Condition met
COc1ncc(C(CC(=O)O)n2ccc(CCCc3ccc4c(n3)NCCCC4)n2)cn1 (single isomer, unassigned) [Example 104]	human αVβ6 (Homo sapiens, UniProt P06756+P18564)	Condition met

Then this compound:
IC50 under 200 nM? Item: Cc1ncc(C(CC(=O)O)n2ccc(CCCc3ccc4c(n3)NCCC4)n2)cn1 (racemic) [Example 22]
Condition met

* * *

Target: human αVβ6 (Homo sapiens, UniProt P06756+P18564)
Assay: human αVβ6 HTRF binding assay
Details: recombinant human αVβ6 integrin, FITC-conjugated fibronectin
attribute_measured: pIC50
Reminder that pIC50 means the negative base-10 logarithm of the concentration expressed in mol/L.

compound	pIC50
COc1ccc(C(CC(=O)O)c2csc(CCCc3ccc4c(n3)NCCC4)n2)cc1F (single isomer, unassigned) [Example 152]	6.74
COc1ccc(C(CC(=O)O)c2ncc(CCCCc3ccc4c(n3)NCCC4)n2C)cn1 (single isomer, unassigned) [Example 164]	6.34
O=C(O)CC(c1ccc2nccnc2c1)c1nc(CCCCc2ccc3c(n2)NCCC3)cs1 (single isomer, unassigned) [Example 119]	7.00

Entry O=C(O)CC(c1cnc(N2CCC2)nc1)n1ccc(CCCc2ccc3c(n2)NCCC3)n1 (racemic) [Example 50] , system human αVβ6 (Homo sapiens, UniProt P06756+P18564): what pIC50 was measured?
8.19

Entry O=C(NC(Cc1cnn(CCc2ccc3c(n2)NCCC3)c1)C(=O)O)OCc1ccccc1 (racemic) [Example 5] , system human αVβ6 (Homo sapiens, UniProt P06756+P18564): what pIC50 was measured?
5.30

Entry COCCOc1cncc(C(CC(=O)O)n2ccc(CCCc3ccc4c(n3)NCCC4)n2)c1 (single isomer, unassigned) [Example 80] , system human αVβ6 (Homo sapiens, UniProt P06756+P18564): what pIC50 was measured?
8.74

Entry COc1ccc(C(CC(=O)O)c2cnn(CCCCc3ccc4c(n3)NCCC4)c2)cc1F (centres unmarked) [Example 44] , system human αVβ6 (Homo sapiens, UniProt P06756+P18564): what pIC50 was measured?
7.19

Entry COc1ccc(C(CC(=O)O)c2cc(CCCc3ccc4c(n3)NCCC4)[nH]n2)cc1F (single isomer, unassigned) [Example 115] , system human αVβ6 (Homo sapiens, UniProt P06756+P18564): what pIC50 was measured?
7.01

Entry COc1ncc([C@H](CC(=O)O)n2ccc(CCC[C@H]3CCc4cccnc4N3)n2)cn1 [Example 89] , system human αVβ6 (Homo sapiens, UniProt P06756+P18564): what pIC50 was measured?
7.00

Entry COc1ccc(C(CC(=O)O)n2cc(CCCc3ccc4c(n3)NCCC4)cn2)cn1 (racemic) [Example 62] , system human αVβ6 (Homo sapiens, UniProt P06756+P18564): what pIC50 was measured?
6.77

Entry O=C(O)C[C@@H](c1cnc(O)nc1)n1ccc(CCCc2ccc3c(n2)NCCC3)n1 [Example 85] , system human αVβ6 (Homo sapiens, UniProt P06756+P18564): what pIC50 was measured?
7.28

Entry CN(C)C(=O)c1ccc(C(CC(=O)O)c2nc(CCCCc3ccc4c(n3)NCCC4)cs2)cc1F (single isomer, unassigned) [Example 131] , system human αVβ6 (Homo sapiens, UniProt P06756+P18564): what pIC50 was measured?
8.64

Entry O=C(NC(Cc1cnn(CCCc2ccc3c(n2)NCCC3)c1)C(=O)O)OCc1ccccc1 (racemic) [Example 6] , system human αVβ6 (Homo sapiens, UniProt P06756+P18564): what pIC50 was measured?
7.10

Entry COc1ccc(C(CC(=O)O)c2cnn(CCCc3ccc4c(n3)NCCC4)c2)cc1F (racemic) [Example 24] , system human αVβ6 (Homo sapiens, UniProt P06756+P18564): what pIC50 was measured?
6.93
